Reference for the values: patent US12295396B2

molecular target: hT2R54 (Homo sapiens, UniProt P59534); construct: expressed in transfected cells; it overexpresses a promiscuous G protein; assay: Cell-based assay for measuring hT2R54 inhibition (FLIPR calcium, Fluo4AM, acetaminophen as bitter agonist); details: Table 2; cells stably expressing hT2R54 and a promiscuous G protein; read-out: hT2R54 IC50
pIC50: −log10 of the molar value.
Label rule, in plain words: pIC50 of 7 and up is fulfilled, under 7 is not fulfilled.

hey, is pIC50 for this one >= 7? COc1cc2c(cc1NC(=O)CN1CCN(C(=O)c3ccncc3)CC1)OCO2
not fulfilled

Reported pIC50 reaches at least 7 for CC(=O)c1cc2c(cc1NC(=O)CN1CCN(C(=O)c3nc(C)c[nH]3)CC1)OCCO2 ?
not fulfilled

Is the recorded value of pIC50 equal to or greater than 7 for this compound? CC(=O)c1cc2c(cc1NC(=O)CN1CCN(C(=O)Cc3cccc(F)c3)CC1)OCO2
not fulfilled

hey, is pIC50 for this one >= 7? CC(=O)c1cc2c(cc1NC(=O)CN1CCN(C(=O)[C@H]3CCC(=O)O3)CC1)OCO2
fulfilled

Exam item: decide whether the reported pIC50 for CC(=O)c1cc2c(cc1NC(=O)CN1CCN(C(=O)[C@@H]3CCCO3)CC1)OCO2 is at least 7.
fulfilled

Check the entry COc1cc2c(cc1NC(=O)CN1CCN(C(=O)Cc3ccc(O)cc3)CC1)OCO2 : does pIC50 equal or exceed 7?
not fulfilled

Please tell me: is the compound CC(=O)c1cc2c(cc1NC(=O)CN1CCN(C(=O)c3cn(C)nn3)CC1)OCO2 at or over 7 in terms of pIC50?
fulfilled

Does the compound CC(=O)c1cc2c(cc1NC(=O)CN1CCN(C(=O)C(C)(C)C)CC1)OCO2 have recorded pIC50 that is 7 or more?
fulfilled

Would you say CC(=O)c1cc2c(cc1NC(=O)CN1CCN(C(=O)c3cnn(C)c3)CC1)OCO2 shows pIC50 at minimum 7?
fulfilled

Evaluate CC(=O)c1cc2c(cc1NC(=O)CN1CCN(C(=O)c3cccnc3)CC1)OCO2 : pIC50 at minimum 7?
fulfilled

Determine whether measured pIC50 meets or exceeds 7 for COc1cc2c(cc1NC(=O)CN1CCN(C(=O)c3cc(C)oc3C)CC1)OCO2
not fulfilled

Record CC(=O)c1cc2c(cc1NC(=O)CN1CCN(C(=O)c3ccsc3)CC1)OCO2 ; criterion: pIC50 no lower than 7. Met?
fulfilled

Could you verify whether the entry CC(=O)c1cc2c(cc1NC(=O)CN1CCN(C(=O)C(C)C)CC1)OCO2 shows pIC50 of no less than 7?
fulfilled

Does the compound CC(=O)c1cc2c(cc1NC(=O)CN1CCN(C(=O)c3ccc(C)o3)CC1)OCO2 have recorded pIC50 that is 7 or more?
fulfilled

Check if pIC50 >= 7 (inclusive). Item: CC(=O)c1cc2c(cc1NC(=O)CN1CCN(C(=O)Cc3ccc(O)cc3)CC1)OCO2
fulfilled

Is reported pIC50 greater than or equal to 7 here: COc1cc2c(cc1NC(=O)CN1CCN(C(=O)c3cc(C)on3)CC1)OCO2
not fulfilled

Kindly determine if pIC50 recorded for CC(=O)c1cc2c(cc1NC(=O)CN1CCN(C(=O)c3cccs3)CC1)OCO2 is above or exactly 7.
fulfilled

Does pIC50 meet or surpass 7 for CC(=O)c1cc2c(cc1NC(=O)CN1CCN(C(=O)CO)CC1)OCO2 ?
not fulfilled

Is the recorded value of pIC50 equal to or greater than 7 for this compound? COc1cccc(C(=O)N2CCN(CC(=O)Nc3cc4c(cc3C(C)=O)OCO4)CC2)c1
fulfilled

Say whether CC(=O)c1cc2c(cc1NC(=O)CN1CCN(C(=O)[C@@H]3CCCO3)CC1)OCCO2 shows pIC50 of 7 or more.
not fulfilled

Quick check: does COCCOCC(=O)N1CCN(CC(=O)Nc2cc3c(cc2C(C)=O)OCO3)CC1 have pIC50 greater than or equal to 7?
not fulfilled

Check the entry COc1cc2c(cc1NC(=O)CN1CCN(C(=O)c3cn(C)nn3)CC1)OCO2 : does pIC50 equal or exceed 7?
not fulfilled

State whether the measured pIC50 reaches 7, counting equality as reaching it, for CC(=O)c1cc2c(cc1NC(=O)CN1CCN(C(=O)c3ccoc3)CC1)OCO2
fulfilled

Determine whether measured pIC50 meets or exceeds 7 for CC(=O)c1cc2c(cc1NC(=O)CN1CCN(C(=O)c3coc(C)n3)CC1)OCO2
fulfilled

Identify whether the reported pIC50 of the following compound is 7 or greater: COc1cc2c(cc1NC(=O)CN1CCN(C(=O)Cc3cccc(F)c3)CC1)OCO2
not fulfilled

Hello, I need to know if CC(=O)c1cc2c(cc1NC(=O)CN1CCN(C(=S)Nc3ccccc3)CC1)OCO2 has measured pIC50 not below 7. Thanks!
not fulfilled

State whether the measured pIC50 reaches 7, counting equality as reaching it, for CC(=O)c1cc2c(cc1NC(=O)CN1CCN(C(=O)C3CCCO3)CC1)OCO2 (stereo not shown)
fulfilled

Is pIC50 for CC(=O)c1cc2c(cc1NC(=O)CN1CCN(C(=O)Cc3ccco3)CC1)OCCO2 at or above 7?
fulfilled

In plain terms: is recorded pIC50 at least 7 for COc1cc2c(cc1NC(=O)CN1CCN(C(C)=O)CC1)CCC2 [compound 355] ?
not fulfilled

Is the recorded value of pIC50 equal to or greater than 7 for this compound? CC(=O)c1cc2c(cc1NC(=O)CN1CCN(C(=O)c3cc(C)no3)CC1)OCO2
fulfilled

Say whether COc1cc2c(cc1NC(=O)CN1CCN(C(=O)c3nc(C)c[nH]3)CC1)OCO2 [compound 391] shows pIC50 of 7 or more.
not fulfilled

###

Target: hT2R54 (Homo sapiens, UniProt P59534)
Construct: expressed in transfected cells; it overexpresses a promiscuous G protein
Sequence (P59534 1-338): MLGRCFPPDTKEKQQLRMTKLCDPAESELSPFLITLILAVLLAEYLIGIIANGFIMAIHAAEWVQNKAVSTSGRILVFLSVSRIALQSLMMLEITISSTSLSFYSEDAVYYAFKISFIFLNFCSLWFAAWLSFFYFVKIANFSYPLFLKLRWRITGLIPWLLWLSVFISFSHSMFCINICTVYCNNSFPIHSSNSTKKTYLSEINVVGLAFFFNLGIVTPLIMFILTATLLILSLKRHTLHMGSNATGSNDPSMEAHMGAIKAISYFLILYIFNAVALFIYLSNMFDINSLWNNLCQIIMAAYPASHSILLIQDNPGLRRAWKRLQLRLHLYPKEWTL
Test: Cell-based assay for measuring hT2R54 inhibition (FLIPR calcium, Fluo4AM, acetaminophen as bitter agonist)
Conditions: Table 5; cells stably expressing hT2R54 and a promiscuous G protein; read-out: hT2R54 IC50
quantity name: pIC50
Schema: pIC50 number; meaning minus log10 of the concentration expressed in molar units.

Return value of pIC50 for input CC(=O)c1cc2c(cc1NC(=O)CN1CCC(C(=O)Nc3cccnc3)CC1)OCO2 [compound 163] , no commentary.
6.34

Please look at this molecule and report its pIC50: COc1cc2c(cc1NC(=O)CN(C)CCC(=O)NCc1ccccc1)OCO2 [compound 451]
6.39

Indicate the recorded pIC50 value for this molecule: CNC(=O)C1CCCN(CC(=O)Nc2cc3c(cc2C(C)=O)OCO3)C1 (stereo not shown) [compound 154]
7.62

Give pIC50 for CC(=O)c1cc2c(cc1NC(=O)CN1CCCC(C(=O)NCc3ccccc3)C1)OCO2 (stereo not shown) [compound 156]
6.94

###

molecular target: hT2R54 (Homo sapiens, UniProt P59534); construct: expressed in transfected cells; it overexpresses a promiscuous G protein; test: Cell-based assay for measuring hT2R54 inhibition (FLIPR calcium, Fluo4AM, acetaminophen as bitter agonist); details: Table 5; cells stably expressing hT2R54 and a promiscuous G protein; read-out: hT2R54 IC50
// returns f unless IC50 is strictly below 1000 nM, in which case t

Please determine if CCNC(=O)C1CCCN(CC(=O)Nc2cc3c(cc2C(C)=O)OCO3)C1 (stereo not drawn) [compound 155] is below 1000 nM in terms of IC50.
t

Confirm or reject: IC50 of CC(=O)c1cc2c(cc1NC(=O)CN1CCCC(C(=O)Nc3ccccc3)C1)OCO2 (stereo not drawn) [compound 157] lies strictly below 1000 nM
t

Consider CNC(=O)C1CCN(CC(=O)Nc2cc3c(cc2C(C)=O)OCO3)CC1 [compound 161] . Does its IC50 lie strictly below 1000 nM?
f

# check: IC50 < 1000 nM for CNC(=O)C1CCCCN1CC(=O)Nc1cc2c(cc1C(C)=O)OCO2 (stereo not drawn) [compound 160]
f

hey, is IC50 for CNC(=O)C1CCCN(CC(=O)Nc2cc3c(cc2OC)OCO3)C1 (stereo not drawn) [compound 453] lower than 1000 nM or not?
t

Hi there! Is IC50 for CC(=O)c1cc2c(cc1NC(=O)CN1CCC(C(=O)Nc3ccccc3)CC1)OCO2 [compound 164] below 1000 nM, do you know?
f

IC50 under 1000 nM? Item: CC(=O)c1cc2c(cc1NC(=O)CN1CCC(C(=O)NCc3ccccc3)CC1)OCO2 [compound 165]
f

Is IC50 of CCNC(=O)C1CCCN(CC(=O)Nc2cc3c(cc2OC)OCO3)C1 (stereo not drawn) [compound 450] strictly below 1000 nM?
t

Is IC50 of CC(=O)c1cc2c(cc1NC(=O)CN1CCCC(C(=O)N3CCOCC3)C1)OCO2 (stereo not drawn) [compound 159] strictly below 1000 nM?
t
